# System: rodent lifetime carcinogenesis bioassay, tumor incidence TD50
# experiment: carcinogenic potency in animals, long-term in vivo studies, CPDB compilation (AID 1745844)
# assay_setup: rat; strain Charles River CD (Sprague-Dawley); females; inhaled; site: pancreas; lesion: acinar-cell adenoma; dosed 105 weeks; study length 105 weeks
measured_metric: TD50

Incoming: Fill in: TD50 of `FC(F)(F)C(Cl)Cl` is ___
Outgoing: 92100 mg/kg/day

---

# Tested on: rodent lifetime carcinogenesis bioassay, tumor incidence TD50
# experiment: carcinogenic potency in animals, long-term in vivo studies, CPDB compilation (AID 1745844)
# assay_setup: mouse; strain B6C3F1; females; by gavage; site: lung; lesion: alveolar/bronchiolar adenoma; dosed 105 weeks; study length 105 weeks
measured_metric: TD50 (mg/kg/day)
Provide only the numeric value, understood in mg/kg/day.

Incoming: Requested field: TD50. Item: `C=C1C/C(=C/C)C(=O)O[C@@H]2CCN3CC=C(COC(=O)[C@@]1(O)CO)[C@H]23`
Outgoing: 2.68

---

# Test system: rodent lifetime carcinogenesis bioassay, tumor incidence TD50
# experiment: carcinogenic potency in animals, long-term in vivo studies, CPDB compilation (AID 1745844)
# assay_setup: mouse; strain B6C3F1; males; in drinking water; site: liver; lesion: hepatocellular adenoma + hepatocellular carcinoma; dosed 103 weeks; study length 104 weeks
measured_metric: TD50 (mg/kg/day)
The reply should contain only the number, in mg/kg/day.

Incoming: Given `Nc1ccc(Cc2ccc(N)cc2)cc1` , state its recorded TD50.
Outgoing: 17

---

Please go through the items and note down their TD50.
# Tested on: rodent lifetime carcinogenesis bioassay, tumor incidence TD50
# experiment: carcinogenic potency in animals, long-term in vivo studies, CPDB compilation (AID 1745844)
# assay_setup: rat; strain Fischer 344; females; by gavage; site: liver; lesion: hepatocellular carcinoma + neoplastic nodule; dosed 103 weeks; study length 104 weeks

Incoming: Which TD50 reading was recorded for the compound `S=[Se]` ?
Outgoing: 6.14 mg/kg/day

Incoming: Please look up its TD50: `COC(N)=O`
Outgoing: 839 mg/kg/day

---

# System: rodent lifetime carcinogenesis bioassay, tumor incidence TD50
# experiment: carcinogenic potency in animals, long-term in vivo studies, CPDB compilation (AID 1745844)
# assay_setup: rat; strain Sas:MRC(WI)BR; males; in feed; site: pituitary gland; lesion: several types; types named in the paper; dosed 140 weeks; study length 144 weeks
measured_metric: TD50

Incoming: What measured TD50 goes with `Cc1ncc([N+](=O)[O-])n1CCO` ?
Outgoing: 731 mg/kg/day

---

# Tested on: rodent lifetime carcinogenesis bioassay, tumor incidence TD50
# experiment: carcinogenic potency in animals, long-term in vivo studies, CPDB compilation (AID 1745844)
# assay_setup: mouse; strain Swiss albino; females; in drinking water; site: aorta and large arteries; lesion: several types; types named in the paper; dosed 121 weeks; study length 121 weeks
measured_metric: TD50

Incoming: I would be grateful if you could share the reported TD50 for `NNc1ccc(C(=O)O)cc1` .
Outgoing: 1070 mg/kg/day

---

# Tested on: rodent lifetime carcinogenesis bioassay, tumor incidence TD50
# experiment: carcinogenic potency in animals, long-term in vivo studies, CPDB compilation (AID 1745844)
# assay_setup: rat; strain Sprague-Dawley; females; in feed; site: kidney/pelvis; lesion: transitional-cell carcinoma; dosed 44 weeks; study length 66 weeks
measured_metric: TD50

Incoming: Consider the compound shown here: `OCN(CO)c1nc(N(CO)CO)nc(N(CO)CO)n1` What is its recorded TD50?
Outgoing: 33.6 mg/kg/day

---

# System: rodent lifetime carcinogenesis bioassay, tumor incidence TD50
# experiment: carcinogenic potency in animals, long-term in vivo studies, CPDB compilation (AID 1745844)
# assay_setup: rat; strain Fischer 344; females; in feed; site: subcutaneous tissue; lesion: fibrosarcoma + fibroma + sarcoma, NOS; dosed 103 weeks; study length 104 weeks
measured_metric: TD50 (mg/kg/day)
Numbers only; they are read as mg/kg/day.

Incoming: For the compound shown here, `N=C1C=CC(=C(c2ccc(N)cc2)c2ccc(N)cc2)C=C1` , give the reported TD50.
Outgoing: 40.9

---

# Tested on: rodent lifetime carcinogenesis bioassay, tumor incidence TD50
# experiment: carcinogenic potency in animals, long-term in vivo studies, CPDB compilation (AID 1745844)
# assay_setup: mouse; strain B6C3F1; females; in feed; site: all sites; lesion: lymphocytic leukemia; dosed 103 weeks; study length 104 weeks
measured_metric: TD50

Incoming: If you can, please state the reported TD50 value of `OC[C@@H](O)[C@@H](O)[C@H](O)[C@H](O)CO` .
Outgoing: 48000 mg/kg/day

---

# Tested on: rodent lifetime carcinogenesis bioassay, tumor incidence TD50
# experiment: carcinogenic potency in animals, long-term in vivo studies, CPDB compilation (AID 1745844)
# assay_setup: rat; strain Fischer 344; males; by gavage; site: kidney; lesion: tubule carcinoma; dosed 104 weeks; study length 104 weeks
measured_metric: TD50

Incoming: What value of measured TD50 is listed for `O=P(OCCCl)(OCCCl)OCCCl` ?
Outgoing: 8400 mg/kg/day

---

# System: rodent lifetime carcinogenesis bioassay, tumor incidence TD50
# experiment: carcinogenic potency in animals, long-term in vivo studies, CPDB compilation (AID 1745844)
# assay_setup: rat; strain Sprague-Dawley; females; in feed; site: all sites; lesion: lymphoblastic lymphoma; dosed 45 weeks; study length 75 weeks
measured_metric: TD50

Incoming: Which TD50 reading was recorded for the molecule `O=CNNc1nc(-c2ccc([N+](=O)[O-])o2)cs1` ?
Outgoing: 184 mg/kg/day

---

# Tested on: rodent lifetime carcinogenesis bioassay, tumor incidence TD50
# experiment: carcinogenic potency in animals, long-term in vivo studies, CPDB compilation (AID 1745844)
# assay_setup: rat; strain Fischer 344; females; oral dosing; site: any site (literature study); lesion: several types; types named in the paper; dosed 78 weeks; study length 104 weeks
measured_metric: TD50 (mg/kg/day)
Your answer should be a plain number; it is taken to be in mg/kg/day.

Incoming: Which TD50 reading was recorded for the compound `COc1cc(-c2ccc(N=C=O)c(OC)c2)ccc1N=C=O` ?
Outgoing: 773

---

# System: rodent lifetime carcinogenesis bioassay, tumor incidence TD50
# experiment: carcinogenic potency in animals, long-term in vivo studies, CPDB compilation (AID 1745844)
# assay_setup: hamster; strain Syrian Golden; males; in drinking water; site: liver; lesion: hepatocellular carcinoma; dosed 91 weeks; study length 91 weeks
measured_metric: TD50
Could you kindly put the unit after your number?

Incoming: Given the entry `O=S(=O)(O)O` , report its measured TD50.
Outgoing: 464 mg/kg/day

---

# Test system: rodent lifetime carcinogenesis bioassay, tumor incidence TD50
# experiment: carcinogenic potency in animals, long-term in vivo studies, CPDB compilation (AID 1745844)
# assay_setup: mouse; strain C57BL/6JfC3Hf/Nctr x BALB/cStCrlfC3Hf/Nctr inter se; males; in drinking water; site: Harderian gland; lesion: adenoma; dosed 143 weeks; study length 143 weeks
measured_metric: TD50

Incoming: Tell me the measured TD50 of `Nc1ccc(-c2ccc(N)cc2)cc1` , please.
Outgoing: 208 mg/kg/day

---

# Test system: rodent lifetime carcinogenesis bioassay, tumor incidence TD50
# experiment: carcinogenic potency in animals, long-term in vivo studies, CPDB compilation (AID 1745844)
# assay_setup: mouse; strain B6C3F1; females; in feed; site: liver; lesion: hepatocellular adenoma + hepatoblastoma + hepatocellular carcinoma; dosed 105 weeks; study length 105 weeks
measured_metric: TD50 (mg/kg/day)
Output spec: scalar in mg/kg/day, unitless text.

Incoming: Could you tell me which TD50 is on file for `Brc1cc(Br)c(-c2cc(Br)c(Br)cc2Br)cc1Br` ?
Outgoing: 0.307

---

# System: rodent lifetime carcinogenesis bioassay, tumor incidence TD50
# experiment: carcinogenic potency in animals, long-term in vivo studies, CPDB compilation (AID 1745844)
# assay_setup: mouse; strain B6C3F1; females; in feed; site: liver; lesion: hepatocellular adenoma + hepatocellular carcinoma; dosed 102 weeks; study length 102 weeks
measured_metric: TD50

Incoming: I would be grateful if you could share the reported TD50 for `Cc1ccccc1N` .
Outgoing: 754 mg/kg/day

---

# Tested on: rodent lifetime carcinogenesis bioassay, tumor incidence TD50
# experiment: carcinogenic potency in animals, long-term in vivo studies, CPDB compilation (AID 1745844)
# assay_setup: mouse; strain B6C3F1; males; in feed; site: all sites; lesion: lymphoma; dosed 103 weeks; study length 104 weeks
Activity calls are given as the source filed them. No rule for the calls is given here.
measured_metric: TD50

Incoming: Requested read-out: TD50. Entry: `Cc1c(N)cccc1N`
Outgoing: 20.5 mg/kg/day (inactive)

---

# Tested on: rodent lifetime carcinogenesis bioassay, tumor incidence TD50
# experiment: carcinogenic potency in animals, long-term in vivo studies, CPDB compilation (AID 1745844)
# assay_setup: rat; strain Sprague-Dawley; females; in feed; site: intestine; lesion: sarcoma; dosed 42 weeks; study length 59 weeks
measured_metric: TD50

Incoming: Please report the recorded TD50 for `Cc1cc(C)nc(-c2ccc([N+](=O)[O-])o2)n1` .
Outgoing: 2.61 mg/kg/day
